tested on: rodent lifetime carcinogenesis bioassay, tumor incidence TD50; test: carcinogenic potency in animals, long-term in vivo studies, CPDB compilation (AID 1745844); conditions: hamster; strain Syrian Golden; males; inhaled; site: respiratory system; lesion: several types; types named in the paper; dosed 52 weeks; study length 81 weeks
Assay metric: TD50

Exercise: Requested field: TD50. Item: CC=O
Solution: 461 mg/kg/day

---

tested on: rodent lifetime carcinogenesis bioassay, tumor incidence TD50; test: carcinogenic potency in animals, long-term in vivo studies, CPDB compilation (AID 1745844); details: mouse; strain Swiss; females; in feed; site: all sites; lesion: leukemia; dosed 46 weeks; study length 53 weeks
Assay metric: TD50

Exercise: Requested field: TD50. Item: O=CNc1nc(-c2ccc([N+](=O)[O-])o2)cs1
Solution: 55.4 mg/kg/day

---

test system: rodent lifetime carcinogenesis bioassay, tumor incidence TD50; assay: carcinogenic potency in animals, long-term in vivo studies, CPDB compilation (AID 1745844); settings: rat; strain Fischer 344; females; in feed; site: adrenal medulla; lesion: several types; types named in the paper; dosed 104 weeks; study length 104 weeks
Assay metric: TD50

Compound	TD50
COc1cc(S(C)=O)ccc1-c1nc2ccncc2[nH]1 (configuration not stated)	385 mg/kg/day

In the following, a different compound is considered.
Exercise: Requested field: TD50. Item: CC1(C)C(=O)Nc2ccc(C3=NNC(=O)CC3)cc21
Solution: 4.82 mg/kg/day

---

tested on: rodent lifetime carcinogenesis bioassay, tumor incidence TD50; experiment: carcinogenic potency in animals, long-term in vivo studies, CPDB compilation (AID 1745844); conditions: rat; strain MRC-Wistar; females; in drinking water; site: liver; lesion: several types; types named in the paper; dosed 52 weeks; study length 127 weeks
Assay metric: TD50 (mg/kg/day)
Numbers only; they are read as mg/kg/day.

Exercise: Requested field: TD50. Item: CC1CN(N=O)C(=O)NC1=O (stereo unspecified)
Solution: 31.2

---

tested on: rodent lifetime carcinogenesis bioassay, tumor incidence TD50; assay: carcinogenic potency in animals, long-term in vivo studies, CPDB compilation (AID 1745844); conditions: mouse; strain B6C3F1; females; by gavage; site: liver; lesion: hepatocellular adenoma + hepatocellular carcinoma; dosed 105 weeks; study length 106 weeks
Assay metric: TD50

Exercise: Requested field: TD50. Item: ClC(Br)Br
Solution: 139 mg/kg/day

---

system: rodent lifetime carcinogenesis bioassay, tumor incidence TD50; assay: carcinogenic potency in animals, long-term in vivo studies, CPDB compilation (AID 1745844); conditions: mouse; strain B6C3F1; females; in feed; site: liver; lesion: hepatocellular adenoma + hepatocellular carcinoma; dosed 78 weeks; study length 91 weeks
Assay metric: TD50

Cc1ccc(Cl)cc1N 180 mg/kg/day

In the following, a different compound is considered.
Exercise: Requested field: TD50. Item: CN(C)c1ccc(Cc2ccc(N(C)C)cc2)cc1
Solution: 207 mg/kg/day

---

tested on: rodent lifetime carcinogenesis bioassay, tumor incidence TD50; experiment: carcinogenic potency in animals, long-term in vivo studies, CPDB compilation (AID 1745844); conditions: mouse; strain B6C3F1; males; in feed; site: liver; lesion: hepatocellular adenoma; dosed 52 weeks; study length 52 weeks
The source made the active and inactive calls. The rule behind the calls is not given here.
Assay metric: TD50

Exercise: Requested field: TD50. Item: c1ccc2[nH]c(-c3cscn3)nc2c1
Solution: 390 mg/kg/day (inactive)
